Test: Inhibition of CXCL8-induced cell migration in human PMN cells at 0.01 uM by chemotaxis assay
Assay type: functional
readout: inhibition at 0.01 µM (%)
Numbers only, in %.

In the examples that follow, each entry is paired with its recorded inhibition at 0.01 µM.
CC(C(=O)O)c1ccc(N2Cc3ccccc3C2=O)cc1 (stereo not given): 50
CCC(=O)Oc1ccc(C(C)C(=O)O)cc1 (stereo not given): -6
CC(C(=O)O)c1cccc(C(O)c2ccccc2)c1 (stereo not given): 31
CC(C)Cc1cccc(C(C)C(=O)O)c1 (stereo not given): -10
C[C@@H](C(=O)N(C)O)c1ccc(OS(=O)(=O)C(F)(F)F)cc1: 48
C[C@@H](C(=O)Nc1ncco1)c1ccc(OS(=O)(=O)C(F)(F)F)cc1: 50

For every item below, please supply its inhibition at 0.01 µM.
1. C[C@@H](C(=O)Nc1nc(C(F)(F)F)cs1)c1ccc(OS(=O)(=O)C(F)(F)F)cc1
2. CC(C(=O)O)c1cccc(C(=O)c2ncco2)c1 (stereo not given)
3. CNC(=O)[C@H](C)c1ccc(OS(=O)(=O)C(F)(F)F)cc1
4. Cc1ccc(S(=O)(=O)Oc2ccc(C(C)C(=O)O)cc2)cc1 (stereo not given)
5. CC(C(=O)O)c1ccc(CC2CCCCC2)cc1 (stereo not given)
6. CC(C)c1cccc(C(C)C(=O)O)c1 (stereo not given)
7. C[C@@H](C(=O)O)c1cccc(C(=O)c2ccccc2)c1
8. CC(C(=O)O)c1ccc(NS(=O)(=O)C(C)C)cc1 (stereo not given)

Ans.
1. 64
2. 26
3. 22
4. 49
5. 2
6. 62
7. 64
8. 44

For every item below, please supply its inhibition at 0.01 µM.
1. CC(C(=O)O)c1ccc(OS(=O)(=O)C(C)C)cc1 (stereo not given)
2. CCC(CC)c1cccc(C(C)C(=O)O)c1 (stereo not given)

Ans.
1: 49; 2: 58

For every item below, please supply its inhibition at 0.01 µM.
1. CCCCc1cccc(C(C)C(=O)O)c1 (stereo not given)
2. CC(C(=O)O)c1ccc(-c2ccccc2)cc1 (stereo not given)
3. CC(C(=O)O)c1ccc(CC2CCCC2)cc1 (stereo not given)
4. C[C@@H](C(=O)NS(=O)(=O)c1cccnc1)c1ccc(OS(=O)(=O)C(F)(F)F)cc1
5. C[C@@H](C(=O)Nc1nccs1)c1ccc(OS(=O)(=O)C(F)(F)F)cc1
6. CC(C(=O)O)c1ccc(NC(=O)c2ccccc2)cc1 (stereo not given)

Ans.
1. 3
2. 0
3. 10
4. 11
5. 57
6. 8
